Origin of measurements: patent US20260184768A1

Assay system: T1, PcrV (aa136-257).6xhis (Pseudomonas aeruginosa)
T1 chain: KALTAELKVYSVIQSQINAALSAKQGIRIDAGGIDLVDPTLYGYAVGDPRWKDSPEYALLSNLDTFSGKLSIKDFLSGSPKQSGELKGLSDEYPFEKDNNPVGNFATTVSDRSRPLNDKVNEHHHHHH
Test description: SPR (Biacore T200), mAb captured via anti-human Fc, PcrV injected, 37 C
The reader will find reported koff values listed item by item below.
Answer with a number only, understood to be in s⁻¹.

>  <Binder>
H1H29336P (antibody, V domains shown) VH: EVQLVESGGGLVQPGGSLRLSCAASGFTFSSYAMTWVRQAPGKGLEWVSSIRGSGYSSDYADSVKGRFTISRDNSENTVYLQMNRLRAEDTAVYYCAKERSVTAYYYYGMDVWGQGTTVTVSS VL: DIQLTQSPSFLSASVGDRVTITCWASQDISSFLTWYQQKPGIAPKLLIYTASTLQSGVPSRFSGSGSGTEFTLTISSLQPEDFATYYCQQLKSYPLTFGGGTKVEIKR

>  <Recorded endpoint>
koff

>  <Observed value>
4.36e-05

$$$$
>  <Binder>
H1H29332P (antibody, V domains shown) VH: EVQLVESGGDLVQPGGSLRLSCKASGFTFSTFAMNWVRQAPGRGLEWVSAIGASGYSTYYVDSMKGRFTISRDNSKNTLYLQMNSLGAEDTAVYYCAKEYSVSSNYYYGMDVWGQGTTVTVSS VL: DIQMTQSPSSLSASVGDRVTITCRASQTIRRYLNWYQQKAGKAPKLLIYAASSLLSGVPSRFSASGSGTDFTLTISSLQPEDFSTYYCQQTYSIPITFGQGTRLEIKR

>  <Recorded endpoint>
koff

>  <Observed value>
0.000106

$$$$

stdin: Requested field: koff. Item: REGN3977 (antibody, V domains shown, also called Control III; REGN3977-Control III) VH: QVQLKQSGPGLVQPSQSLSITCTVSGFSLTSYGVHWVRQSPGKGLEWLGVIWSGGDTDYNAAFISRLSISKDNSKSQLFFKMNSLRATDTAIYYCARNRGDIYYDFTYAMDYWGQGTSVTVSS VL: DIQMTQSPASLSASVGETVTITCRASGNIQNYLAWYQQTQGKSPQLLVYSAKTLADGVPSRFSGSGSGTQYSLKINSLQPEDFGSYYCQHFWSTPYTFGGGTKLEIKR
stdout: 0.00245
